Some compounds, each annotated with its measured melting point.
Counter-ions that a name gives are not always drawn.

Examples from the recorded data:
O=C(Nc1ccc2c(c1)C(CN1CCC(c3ccc(F)cc3)CC1)CC2)C1CCCC1 (stereo not shown) : 177 to 178 °C
CC(=O)Nc1ccc2c(c1)C(CN1CCC(c3ccc(F)cc3)CC1)CS2 (stereo not shown) : 140 to 142 °C
CC(=O)Nc1ccc2c(c1)C(CN1CC=C(c3c[nH]c4ccc(Cl)cc34)CC1)CC2 (stereo not shown) (as salt: oxalate) [Compound 11g] : 220 to 223 °C
CC(=O)Nc1ccc2c(c1)C(CN1CC=C(c3c[nH]c4ccc(F)cc34)CC1)CS2 (stereo not shown) (as salt: oxalate) [Compound 11d] : 155 to 165 °C

Prompt line: Output measured melting point for this item: Nc1ccc2c(c1)C(CN1CCN(c3ccc(Cl)c(Cl)c3)CC1)CC2 (stereo not shown)
Response line: 156 to 158 °C

Prompt line: Output measured melting point for this item: CC(=O)Nc1ccc2c(c1)C(CN1CCC(O)(c3ccc(Cl)c(C(F)(F)F)c3)CC1)CC2 (stereo not shown) (as salt: oxalate)
Response line: 163 to 165 °C

Prompt line: Output measured melting point for this item: CC(=O)Nc1ccc2c(c1)C(CN1CCN(c3ccc(F)cc3)CC1)CC2 (stereo not shown)
Response line: 179 to 187 °C

Prompt line: Output measured melting point for this item: CC(=O)Nc1ccc2c(c1)C(CN1CC=C(c3ccc(Cl)cc3)CC1)CC2 (stereo not shown) (as salt: oxalate)
Response line: 223 to 226 °C

###

Some compounds, each annotated with its measured melting point.
Where a name gives a salt, the structure may show the parent alone.

O=C(Nc1ccc(F)cc1)Nc1ccc2c(c1)C(CN1CCC(c3ccc(F)cc3)CC1)CC2 (centres unmarked) : 235 to 238 °C

Prompt line: Output measured melting point for this item: O=C(Nc1ccc2c(c1)C(CN1CCC(c3ccc(F)cc3)CC1)CC2)N1CCCC1 (centres unmarked)
Response line: 190 to 193 °C

Prompt line: Output measured melting point for this item: CC(=O)Nc1ccc2c(c1)C(CN1CCC(n3ccc4cc(Cl)ccc43)CC1)CC2 (centres unmarked)
Response line: 189 to 191 °C

Prompt line: Output measured melting point for this item: CC(=O)Nc1ccc2c(c1)C(CN1CCC(c3c[nH]c4ccc(F)cc34)CC1)CC2 (centres unmarked) (as salt: oxalate) [Compound 11c]
Response line: 145 to 149 °C

###

# Test system: 5-HT2A receptors (Rattus norvegicus, UniProt P14842)
# Construct: 5-HT2A receptors in membranes from rat is determined in vitro; from tissue; host or cells: rat cortex membranes
# Sequence (P14842 whole entry): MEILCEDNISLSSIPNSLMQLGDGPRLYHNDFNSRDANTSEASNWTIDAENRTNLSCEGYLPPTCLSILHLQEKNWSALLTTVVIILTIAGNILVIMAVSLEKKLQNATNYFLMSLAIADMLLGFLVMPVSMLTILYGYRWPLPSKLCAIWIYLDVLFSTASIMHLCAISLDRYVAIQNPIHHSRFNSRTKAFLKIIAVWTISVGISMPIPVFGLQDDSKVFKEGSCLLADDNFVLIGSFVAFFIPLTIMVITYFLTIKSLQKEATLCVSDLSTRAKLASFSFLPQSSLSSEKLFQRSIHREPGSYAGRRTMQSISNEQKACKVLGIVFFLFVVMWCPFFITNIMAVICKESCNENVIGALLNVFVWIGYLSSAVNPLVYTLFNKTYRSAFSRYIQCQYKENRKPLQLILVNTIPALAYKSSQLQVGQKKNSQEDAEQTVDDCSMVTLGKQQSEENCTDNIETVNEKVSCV
# Experimental details: Inhibition of 3H-Ketanserin binding to 5-HT2 receptors in rat cortex in vitro
# Condition set: 3H-Ketanserin 0.5 nM; membranes from rat cortex; read-out: 3H Ketanserin (5-HT2A) binding, IC50
# Protocol: Inhibition of ^3H-Ketanserin Binding to 5-HT2 Receptors in Rat Cortex in vitro. By this method the inhibition by drugs of the binding of ^3H-Ketanserin (0.5 nM) to 5-HT2A receptors in membranes from rat is determined in vitro .
Some compounds, each annotated with its measured log10(IC50).
Note: values are log10 of IC50 expressed in nM.

CCOC(=O)Nc1ccc2c(c1)C(CN1CCC(c3ccc(F)cc3)CC1)CC2 (centres unmarked) : 1.74
CC(=O)Nc1ccc2c(c1)C(CN1CCN(c3cccc(Cl)c3)CC1)CC2 (centres unmarked) : 0.70
CC(=O)Nc1ccc2c(c1)C(CN1CCN(c3ccccc3Cl)CC1)CC2 (centres unmarked) : 1.81

Prompt line: Output measured log10(IC50) for this item: CN(C)C(=S)Nc1ccc2c(c1)C(CN1CCC(c3ccc(F)cc3)CC1)CC2 (centres unmarked)
Response line: 0.83

Prompt line: Output measured log10(IC50) for this item: CNC(=S)Nc1ccc2c(c1)C(CN1CCC(c3ccc(F)cc3)CC1)CC2 (centres unmarked)
Response line: 0.59

Prompt line: Output measured log10(IC50) for this item: COc1ccccc1N1CCN(CC2CCc3ccc(NC(C)=O)cc32)CC1 (centres unmarked)
Response line: 2.45

Prompt line: Output measured log10(IC50) for this item: CC(=O)Nc1ccc2c(c1)C(CN1CCC(c3ccc(F)cc3)CC1)CC2 (single isomer, unassigned; (+)) [Compound 14a]
Response line: 1.20

Prompt line: Output measured log10(IC50) for this item: CC(=O)Nc1ccc2c(c1)C(CN1CCC(c3ccc(F)cc3)CC1)CC2 (centres unmarked) [Compound 4a]
Response line: 0.60
